Molecular target: UniProtKB O06543
Test: MCR inhibition, colorimetric assay, dose-response curves
Format: biochemical
Parameters: made in house
Details: repeat 2; 4-parameter logistic fit coefficient
Reported Hillslope values follow for various compounds
Number only, no unit.

Examples from the recorded data:
# COMPOUND, TARGET_DESC, RECORDED_ENDPOINT, ASSAY_VALUE
data = [
    ("CC(Sc1cccc(OCCc2cccc(C(F)(F)F)c2)c1)C(=O)SCCNC(=O)CCNC(=O)C(O)C(C)(C)COP(=O)(O)OP(=O)(O)OCC1OC(n2cnc3c(N)ncnc32)C(O)C1OP(=O)(O)O (racemic) [Compound 6]", "UniProtKB O06543", "Hillslope", -0.6960),
    ("CC(Sc1cccc(OCc2ccccc2)c1)C(=O)SCCNC(=O)CCNC(=O)C(O)C(C)(C)COP(=O)(O)OP(=O)(O)OCC1OC(n2cnc3c(N)ncnc32)C(O)C1OP(=O)(O)O (racemic) [Compound 2]", "UniProtKB O06543", "Hillslope", -0.7479),
    ("CC(C)COc1ccc(SC(C)C(=O)SCCNC(=O)CCNC(=O)C(O)C(C)(C)COP(=O)(O)OP(=O)(O)OCC2OC(n3cnc4c(N)ncnc43)C(O)C2OP(=O)(O)O)cc1 (racemic) [Compound 13]", "UniProtKB O06543", "Hillslope", -0.8209),
]

# input Quick one: Hillslope for COc1cccc(CCOc2ccc(SC(C)C(=O)SCCNC(=O)CCNC(=O)C(O)C(C)(C)COP(=O)(O)OP(=O)(O)OCC3OC(n4cnc5c(N)ncnc54)C(O)C3OP(=O)(O)O)cc2)c1 (racemic) [Compound 11] ?
# output -1.1060

# input Return reported Hillslope; argument: CC(Sc1ccc(OCCc2ccccc2)cc1)C(=O)SCCNC(=O)CCNC(=O)C(O)C(C)(C)COP(=O)(O)OP(=O)(O)OCC1OC(n2cnc3c(N)ncnc32)C(O)C1OP(=O)(O)O (racemic) [Compound 10]
# output -1.3506

---

Target: Mycobacterium tuberculosis α-methylacyl-CoA racemase (MCR) (Mycobacterium tuberculosis, UniProt O06543)
Sequence (O06543 whole entry): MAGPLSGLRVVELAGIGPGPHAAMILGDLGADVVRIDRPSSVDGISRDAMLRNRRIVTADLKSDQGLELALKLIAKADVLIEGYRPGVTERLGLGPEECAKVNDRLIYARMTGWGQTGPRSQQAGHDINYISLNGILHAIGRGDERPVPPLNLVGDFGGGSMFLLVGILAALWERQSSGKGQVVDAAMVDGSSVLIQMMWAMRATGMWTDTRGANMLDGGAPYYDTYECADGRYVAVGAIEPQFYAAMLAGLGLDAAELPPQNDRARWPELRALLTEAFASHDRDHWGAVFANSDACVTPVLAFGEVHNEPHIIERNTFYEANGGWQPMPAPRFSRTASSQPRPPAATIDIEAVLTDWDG
Assay: MCR inhibition, colorimetric assay, dose-response curves
Type: biochemical
Parameters: made in house
Conditions: repeat 2; 4-parameter logistic fit coefficient
Hillslope overview
Lab note: jot the number down without any unit.

# COMPOUND, Hillslope
measured = [
    ("COc1cccc(CCOc2cccc(SC(C)C(=O)SCCNC(=O)CCNC(=O)C(O)C(C)(C)COP(=O)(O)OP(=O)(O)OCC3OC(n4cnc5c(N)ncnc54)C(O)C3OP(=O)(O)O)c2)c1 (racemic) [Compound 5]", -1.0398),
]

# input Can you look up the measured Hillslope of CC(Sc1ccc(OCc2ccccc2)cc1)C(=O)SCCNC(=O)CCNC(=O)C(O)C(C)(C)COP(=O)(O)OP(=O)(O)OCC1OC(n2cnc3c(N)ncnc32)C(O)C1OP(=O)(O)O (racemic) [Compound 8] for me?
# output -0.9668

# input Need Hillslope of COc1cccc(COc2cccc(SC(C)C(=O)SCCNC(=O)CCNC(=O)C(O)C(C)(C)COP(=O)(O)OP(=O)(O)OCC3OC(n4cnc5c(N)ncnc54)C(O)C3OP(=O)(O)O)c2)c1 (racemic) [Compound 3] , thanks.
# output -0.5594

# input Which Hillslope is reported for this compound? COc1cccc(COc2ccc(SC(C)C(=O)SCCNC(=O)CCNC(=O)C(O)C(C)(C)COP(=O)(O)OP(=O)(O)OCC3OC(n4cnc5c(N)ncnc54)C(O)C3OP(=O)(O)O)cc2)c1 (racemic) [Compound 9]
# output -0.8652

# input // Hillslope lookup, key: CC(Sc1cccc(OCCc2ccccc2)c1)C(=O)SCCNC(=O)CCNC(=O)C(O)C(C)(C)COP(=O)(O)OP(=O)(O)OCC1OC(n2cnc3c(N)ncnc32)C(O)C1OP(=O)(O)O (racemic) [Compound 4]
# output -0.8291

# input Which value of Hillslope has been reported for CCCCCOc1ccc(SC(C)C(=O)SCCNC(=O)CCNC(=O)C(O)C(C)(C)COP(=O)(O)OP(=O)(O)OCC2OC(n3cnc4c(N)ncnc43)C(O)C2OP(=O)(O)O)cc1 (racemic) [Compound 14] in the records?
# output -0.8783

# input Query (compound): CC(C)COc1cccc(SC(C)C(=O)SCCNC(=O)CCNC(=O)C(O)C(C)(C)COP(=O)(O)OP(=O)(O)OCC2OC(n3cnc4c(N)ncnc43)C(O)C2OP(=O)(O)O)c1 (racemic) [Compound 7] ; field requested: Hillslope
# output -0.6683

# input // Hillslope lookup, key: CC(Sc1ccc(OCCc2cccc(C(F)(F)F)c2)cc1)C(=O)SCCNC(=O)CCNC(=O)C(O)C(C)(C)COP(=O)(O)OP(=O)(O)OCC1OC(n2cnc3c(N)ncnc32)C(O)C1OP(=O)(O)O (racemic) [Compound 12]
# output -1.0035

---

Molecular target: Mycobacterium tuberculosis α-methylacyl-CoA racemase (MCR) (Mycobacterium tuberculosis)
Experiment: MCR inhibition, colorimetric assay, dose-response curves
Type: biochemical
Design: made in house
Conditions: repeat 3; 4-parameter logistic fit coefficient
RECORDED_ENDPOINT: Hillslope
In your answer, state the number alone without any accompanying words.

# input GET /values?readout=Hillslope&system=Mycobacterium tuberculosis α-methylacyl-CoA racemase (MCR) (Mycobacterium tuberculosis)&item= CC(Sc1ccc(OCc2ccccc2)cc1)C(=O)SCCNC(=O)CCNC(=O)C(O)C(C)(C)COP(=O)(O)OP(=O)(O)OCC1OC(n2cnc3c(N)ncnc32)C(O)C1OP(=O)(O)O (racemic)
# output -0.9845

# input Return Hillslope measured with Mycobacterium tuberculosis α-methylacyl-CoA racemase (MCR) (Mycobacterium tuberculosis) given this compound: COc1cccc(COc2ccc(SC(C)C(=O)SCCNC(=O)CCNC(=O)C(O)C(C)(C)COP(=O)(O)OP(=O)(O)OCC3OC(n4cnc5c(N)ncnc54)C(O)C3OP(=O)(O)O)cc2)c1 (racemic)
# output -1.1180

# input # returns recorded Hillslope (system: Mycobacterium tuberculosis α-methylacyl-CoA racemase (MCR) (Mycobacterium tuberculosis)) for CC(Sc1cccc(OCCc2cccc(C(F)(F)F)c2)c1)C(=O)SCCNC(=O)CCNC(=O)C(O)C(C)(C)COP(=O)(O)OP(=O)(O)OCC1OC(n2cnc3c(N)ncnc32)C(O)C1OP(=O)(O)O (racemic)
# output -1.0454

# input Reported Hillslope for Mycobacterium tuberculosis α-methylacyl-CoA racemase (MCR) (Mycobacterium tuberculosis), given COc1cccc(CCOc2ccc(SC(C)C(=O)SCCNC(=O)CCNC(=O)C(O)C(C)(C)COP(=O)(O)OP(=O)(O)OCC3OC(n4cnc5c(N)ncnc54)C(O)C3OP(=O)(O)O)cc2)c1 (racemic) ?
# output -0.6966

---

# Lookup of reported IC50 keyed by entry
Target: Mycobacterium tuberculosis α-methylacyl-CoA racemase (MCR) (Mycobacterium tuberculosis, UniProt O06543)
Test: MCR inhibition, colorimetric assay, dose-response curves
Type: biochemical
Parameters: made in house
Settings: Log10 IC50, repeat 2; 4-parameter logistic fit coefficient
Don't forget the unit after the number, please.

See these solved cases before continuing.
# COMPOUND, ASSAY_VALUE
rows = [
    ("COc1cccc(CCOc2ccc(SC(C)C(=O)SCCNC(=O)CCNC(=O)C(O)C(C)(C)COP(=O)(O)OP(=O)(O)OCC3OC(n4cnc5c(N)ncnc54)C(O)C3OP(=O)(O)O)cc2)c1 (racemic)", "1310 nM"),
    ("CC(Sc1ccc(OCCc2cccc(C(F)(F)F)c2)cc1)C(=O)SCCNC(=O)CCNC(=O)C(O)C(C)(C)COP(=O)(O)OP(=O)(O)OCC1OC(n2cnc3c(N)ncnc32)C(O)C1OP(=O)(O)O (racemic)", "706 nM"),
    ("COc1cccc(COc2ccc(SC(C)C(=O)SCCNC(=O)CCNC(=O)C(O)C(C)(C)COP(=O)(O)OP(=O)(O)OCC3OC(n4cnc5c(N)ncnc54)C(O)C3OP(=O)(O)O)cc2)c1 (racemic)", "2250 nM"),
    ("CC(Sc1cccc(OCc2ccccc2)c1)C(=O)SCCNC(=O)CCNC(=O)C(O)C(C)(C)COP(=O)(O)OP(=O)(O)OCC1OC(n2cnc3c(N)ncnc32)C(O)C1OP(=O)(O)O (racemic)", "619 nM"),
    ("COc1cccc(COc2cccc(SC(C)C(=O)SCCNC(=O)CCNC(=O)C(O)C(C)(C)COP(=O)(O)OP(=O)(O)OCC3OC(n4cnc5c(N)ncnc54)C(O)C3OP(=O)(O)O)c2)c1 (racemic)", "425 nM"),
]

# input Requested field: IC50. Item: CC(C)COc1cccc(SC(C)C(=O)SCCNC(=O)CCNC(=O)C(O)C(C)(C)COP(=O)(O)OP(=O)(O)OCC2OC(n3cnc4c(N)ncnc43)C(O)C2OP(=O)(O)O)c1 (racemic)
# output 3320 nM

# input What IC50 value was documented for this compound, COc1cccc(CCOc2cccc(SC(C)C(=O)SCCNC(=O)CCNC(=O)C(O)C(C)(C)COP(=O)(O)OP(=O)(O)OCC3OC(n4cnc5c(N)ncnc54)C(O)C3OP(=O)(O)O)c2)c1 (racemic) ?
# output 1260 nM

# input Return reported IC50; argument: CC(Sc1ccc(OCc2ccccc2)cc1)C(=O)SCCNC(=O)CCNC(=O)C(O)C(C)(C)COP(=O)(O)OP(=O)(O)OCC1OC(n2cnc3c(N)ncnc32)C(O)C1OP(=O)(O)O (racemic)
# output 2610 nM

# input Query (compound): CC(Sc1cccc(OCCc2cccc(C(F)(F)F)c2)c1)C(=O)SCCNC(=O)CCNC(=O)C(O)C(C)(C)COP(=O)(O)OP(=O)(O)OCC1OC(n2cnc3c(N)ncnc32)C(O)C1OP(=O)(O)O (racemic) ; field requested: IC50
# output 109 nM

# input Which measured IC50 value corresponds to CC(C)COc1ccc(SC(C)C(=O)SCCNC(=O)CCNC(=O)C(O)C(C)(C)COP(=O)(O)OP(=O)(O)OCC2OC(n3cnc4c(N)ncnc43)C(O)C2OP(=O)(O)O)cc1 (racemic) ?
# output 1930 nM
